Assay: chemical genetic growth profiling, strain panel (AID 1159580);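 further: tested at 20 µM; growth read once vehicle control cultures reached saturation at 30 °C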
Settings: S. cerevisiae deletion strains, growth OD, locus YMR307W, strain GAS1, stronger effect = lower value
Among all 5,500 compounds or so, about 2,000 (36%) were called active. Roughly 18% stayed inconclusive and do not appear here. The list shows a part of the results.
Note to self: normalized growth under 1 means MET, ties and anything higher get NOT MET.

Field: example entries. Status: answers known.
Compound	Qualitative Label
Cc1cscc1S(=O)(=O)c1ccc(Cl)cc1	MET
N#C/C(=C\c1cccc(O)c1)C(=O)O	NOT MET
C[C@@H](N)[C@@H](O)c1ccccc1	NOT MET
COc1c2ccccc2nc2occc12	NOT MET
Cc1c(S(=O)(=O)c2ccc(Cl)cc2)csc1S(=O)(=O)N/N=C\c1c(Cl)cccc1Cl	NOT MET

normalized growth strictly < 1 for this compound? Cc1c(S(=O)(=O)c2ccc(Cl)cc2)csc1C(=O)Nc1ccc(N2CCOCC2)c(Cl)c1
NOT MET

Check COc1c2ccoc2nc2c(OC)c(OCC(O)C(C)(C)O)ccc12 (stereo unspecified) too.
MET

Check COc1ccc(-n2c(-c3ccc(C)cc3)csc2=N)cc1 too.
NOT MET
